Answer each item with its documented CC50 at 48 h.
# protocolNotes: in vitro
# assayContext: African green monkey

Which measured CC50 at 48 h value corresponds to Cn1c(Nc2ccc(C(F)(F)F)cc2)nc2cc(Oc3ccnc(-c4ncc(C(F)(F)F)[nH]4)c3)ccc21 ?
> 5 µM

Suppose we examine the compound N#CC1(c2ccc(NC(=O)c3cccnc3NCc3ccncc3)cc2)CCCC1 ; what CC50 at 48 h value has been reported?
> 5 µM

Can you look up the measured CC50 at 48 h of COc1ccc(-c2ccc3c(N4CCOC[C@@H]4C)nc(N4CCOC[C@@H]4C)nc3n2)cc1CO for me?
> 5 µM

Consider the compound CNC(=O)CN1CCC(Oc2cc3c(Nc4cccc(Cl)c4F)ncnc3cc2OC)CC1 and give its measured CC50 at 48 h.
> 5 µM
